system: NCI/ADR-RES ovarian; assay: NCI-60 one-dose screen, 48 h; conditions: 10 µM unless noted
This is part of a sample that, as a whole, favours compounds with a hit. Of some 83,000 tested, about 20% had one in any assay. The source made the active and inactive calls. How the source made its calls: active means growth percent below 10; inactive means the rest.
// one of label 1 for active, label 0 for inactive, no free text

Which outcome did this test record for the molecule "Cc1cccc2nnc(-c3ccccc3)n12" ?
label 0

What is the recorded call for this molecule in the test? "C/C=C(/C(=C/C)c1ccc(O)cc1)c1ccc(O)cc1"
label 0

Give the logged outcome of this assay for the following molecule: COc1cc(/C=C/C(=O)CC(=O)/C=C/c2ccc(OC(=O)C3C4CC5CC(C4)CC3C5)c(OC)c2)ccc1OC(=O)C1C2CC3CC(C2)CC1C3 (centres undefined)
label 0

Returns: the outcome recorded for "COc1ccc2cc(-c3nc4ccccc4[nH]3)c(=O)oc2c1" in this assay.
label 0

Just curious, what result did "CCOC(=O)c1sc(NC(=O)COc2cccc(/C=C3\Cc4ccc(Cl)cc4C3=O)c2)nc1C" get here?
label 0

What call does the record list for CC(C)=CCCC(C)c1ccc(C)c2c1OCN(CC1CCNCC1)C2 (centres undefined) ?
label 0

For this molecule, state the assay outcome: CC(NC(=O)Oc1cccc2ccccc12)c1ccccc1 (centres undefined)
label 0

Field: outcome | Entry: COc1ccc(C2CC(c3ccc(Nc4ccnc5cc(Cl)ccc45)cc3)=NN2C(C)=O)cc1 (centres undefined)
label 0

Recorded test call requested for CC1=C([Se]CC(OC(=O)[C@@H](CSSC(C)(C)C)NC(=O)C(C)(C)C)C(=O)NCCCCCC(=O)OCc2ccccc2)C(=O)c2ccccc2C1=O (some centres undefined)
label 1

Which outcome was entered for the molecule "COc1cnc2c(c1)C(=O)c1c-2n(CCCn2ccnc2)c(=O)c2cc(F)ccc12" in this test?
label 1

Which outcome was entered for the molecule NS(=O)(=O)c1ccc(N2CC(c3nc4ccccc4[nH]3)CC2=O)cc1 (centres undefined) in this test?
label 0

Please state the recorded outcome for this molecule: "N#Cc1c(-c2ccccc2)cc(-c2ccccc2)n(CCCCC(=O)O)c1=O"
label 0

Hi, do you know how "Cc1ccc(-c2c3c(N)nc(-c4ccncc4)nc3nc3c2c(C)nn3-c2ccccc2)cc1" came out in this test?
label 0

What classification did "COc1cc(/C=N/OC(=O)Nc2ccccc2)cc(OC)c1OC" end up with in this test?
label 0

Dear all, I need the recorded test outcome for Cc1c2oc3c(C)ccc(C(=O)OC(C)C4NC(=O)C(C(C)C)N(C)C(=O)CN(C)C(=O)C5CCCN5C(=O)C(C(C)C)NC4=O)c3nc-2c(C(=O)OC(C)C2NC(=O)C(C(C)C)N(C)C(=O)CN(C)C(=O)C3CCCN3C(=O)C(C(C)C)NC2=O)c(N)c1=O (centres undefined) , thank you.
label 0

Any idea what this test logged for COc1cc(C2CC(C3C(=O)N(C)C(=O)N(C)C3=O)=NN2C=O)cc(OC)c1OC (centres undefined) ?
label 0

Can you look up the reported call for "COc1cc2c(cc1OC)C(=O)/C(=C/c1cccc(OCC(=O)c3ccccc3)c1)C2" for me?
label 0

Outcome? "C(=C1c2ccccc2-c2ccccc21)c1ccncc1"
label 1

Please indicate how the test categorized "COc1ccc(NC(=O)c2ccccc2-c2ccccc2)c(C(N)=O)c1" .
label 0
